Target: UniProtKB A0A4P9CZ78
Experiment: Fluorescence competitive binding assay (1-NPN probe) with recombinant SzeaOBP1
resultType: pKd
Give bare numbers, as −log10 of the molar value.

Fill in: pKd of c1ccc(Nc2cccc3ccccc23)cc1 [Ligand 1-NPN, N-Phenyl-1-naphthylamine, reference compound] is ___
5.07

====

Target: SzeaOBP1 (Sitophilus zeamais)
Sequence (A0A4P9CZ78 entry or part of it): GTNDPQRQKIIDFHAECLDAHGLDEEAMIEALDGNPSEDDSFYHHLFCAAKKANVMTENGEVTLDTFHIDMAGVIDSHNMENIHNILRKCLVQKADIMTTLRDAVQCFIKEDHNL
Test: Fluorescence competitive binding assay (1-NPN probe) with recombinant SzeaOBP1
Settings: displacement of 1-NPN, protein and 1-NPN 2 μM, Tris-HCl pH 7.4; read-out: IC50 SzeaOBP1
resultType: pIC50
Numbers only, as −log10 of the molar value.

Example entries begin here.
> print(dat)
   compoundsmiles                       testedon  recordedresult
1        CC(C)C=O  SzeaOBP1 (Sitophilus zeamais)            5.30
2         CC(=O)O  SzeaOBP1 (Sitophilus zeamais)            4.73
3         CCCCC=O  SzeaOBP1 (Sitophilus zeamais)            5.24
4       CCCCCCC=O  SzeaOBP1 (Sitophilus zeamais)            5.24
5         CC(C)=O  SzeaOBP1 (Sitophilus zeamais)            5.27

Please turn your attention to the following entry.
Quick one: pIC50 for CCCCCCCCO ?
5.11

====

Biological target: UniProt A0A4P9CZ78
Assay: Fluorescence competitive binding assay (1-NPN probe) with recombinant SzeaOBP1
Details: calculated from IC50 with K1-NPN 8.590 μM; protein and 1-NPN 2 μM, Tris-HCl pH 7.4; read-out: Ki SzeaOBP1
resultType: pKi
Answers are plain numbers, as −log10 of the molar value.

> print(dat)
                                   compound            testedon  recordedresult
1  CCCCCCCCCO [Ligand 1-Nonanol, 1-Nonanol]  UniProt A0A4P9CZ78            5.16

// each compound listed below needs its pKi
1. Cc1occc(=O)c1O [Maltol (3-hydroxy-2-methyl-4-pyrone)]
2. CCCCCCCCCCCCCCCCO [Cetanol]

1. 5.28
2. 5.56

Taken from paper PMC6920827.
